- ASSAY SUMMARY: Antiplatelet activity against citreated rabbit platelet assessed as arachidonic acid-induced platelet aggregation
- Assay type: functional, cell-based
- ASSAY SETUP: Oryctolagus cuniculus
For each entry below, report its IC50 value.
Give just the number in µM; leave the unit off.

Problem: Please look up its IC50: Oc1ccc([C@H]2Oc3cc(O)cc(/C=C/c4ccc5c(c4)[C@H](c4cc(O)cc6c4[C@H](c4cc(O)cc(O)c4)[C@@H](c4ccc(O)cc4)O6)[C@H](c4ccc(O)cc4)O5)c3[C@@H]2c2cc(O)cc(O)c2)cc1
Result: 5.7

Problem: Please look up its IC50: Oc1ccc(/C=C/c2cc(O)cc3c2[C@@H](c2cc(O)cc4c2[C@H](c2cc(O)cc5c2[C@@H](c2cc(O)cc(O)c2)[C@H](c2ccc(O)cc2)O5)[C@@H](c2ccc(O)cc2)O4)[C@H](c2ccc(O)cc2)O3)cc1
Result: 9

Problem: Please look up its IC50: O=Cc1ccc2c(c1)C(c1cc(O)cc3c1[C@H](c1cc(O)cc(O)c1)[C@@H](c1ccc(O)cc1)O3)[C@H](c1ccc(O)cc1)O2 (some centres not stated)
Result: 7

Problem: Please look up its IC50: CC(=O)Oc1ccccc1C(=O)O
Result: 32.7

Problem: Please look up its IC50: O=C1C=C(/C=C/c2ccc(O)cc2)C[C@@H](c2cc(O)cc(O)c2)[C@H](c2ccc(O)cc2)C1
Result: 13.4
